measurementTarget: T1, Human Notch4-NRR domain Fc fusion protein (human, UniProt Q99466 1046-1445, limits assumed)
T1 construct: Expressed in a CHO cell line, used from culture supernatant; 1 is named; also called Human Notch4-NRR Fusion Protein; not shown: Fc
T1 sequence: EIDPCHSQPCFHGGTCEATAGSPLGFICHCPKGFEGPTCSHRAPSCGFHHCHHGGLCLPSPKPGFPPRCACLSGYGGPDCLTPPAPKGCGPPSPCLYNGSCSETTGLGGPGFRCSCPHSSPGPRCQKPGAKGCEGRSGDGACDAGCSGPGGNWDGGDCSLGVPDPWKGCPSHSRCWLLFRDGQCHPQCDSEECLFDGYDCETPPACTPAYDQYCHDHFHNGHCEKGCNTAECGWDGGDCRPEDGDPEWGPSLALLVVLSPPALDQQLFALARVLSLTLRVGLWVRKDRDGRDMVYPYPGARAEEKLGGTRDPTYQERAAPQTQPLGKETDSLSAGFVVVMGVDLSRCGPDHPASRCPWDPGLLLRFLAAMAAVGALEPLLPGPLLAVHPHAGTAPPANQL
procedureDetails: SPR (Biacore) as for Table 30; Notch4-NRR-Fc captured, antibody injected; averaged, N=2
measuredEndpoint: koff (s⁻¹)
Enter your answer as a number in s⁻¹; do not include the unit.

Endpoint output: koff of HA1L5 (antibody, human IgG2, kappa, V domains shown, Humanized IgG2 (V234A, G237A)/κ; also called No. 25) VH: EVQLVESGGGLVQPGGSLRLSCAASGFTFSSYGMSWVRQAPGKGLEYVSTINSNGGRTYYANSVKGRFTISRDNSKNTLYLQMGSLRAEDMAVYYCARDQGFAYWGQGTLVTVSS VL: DIQMTQSPSSLSASVGDRVTITCKASQDVGTAVAWYQQKPGKSPKLLIYWASTRHTGVPSRFSGSGSGTDFTLTISSLQPEDVATYFCQQYSSYPWTFGQGTKVEIKR . Value?
0.0452

And the next one, HK1L3 (antibody, human IgG2, kappa, V domains shown, Humanized IgG2 (V234A, G237A)/κ; also called No. 8) VH: EVQLVESGGGLVQPGGSLRLSCAASGFTFSSYGMSWVRQAPGKGLEYVSTINSNGGRTYYPDSVKGRFTISRDNSKNTLYLQMGSLRAEDMAVYYCARDQGFAYWGQGTLVTVSS VL: EIVMTQSPATLSVSPGERATLSCKASQDVGTAVAWYQQKPGQAPRLLIYWASTRHTGIPARFSGSGSGTEFTLTISSLQSEDFAVYYCQQYSSYPWTFGQGTKVEIKR ?
0.0196

And the next one, HK1L4 (antibody, human IgG2, kappa, V domains shown, Humanized IgG2 (V234A, G237A)/κ; also called No. 9) VH: EVQLVESGGGLVQPGGSLRLSCAASGFTFSSYGMSWVRQAPGKGLEYVSTINSNGGRTYYPDSVKGRFTISRDNSKNTLYLQMGSLRAEDMAVYYCARDQGFAYWGQGTLVTVSS VL: EIVMTQSPATLSVSPGERATLSCKASQDVGTAVAWYQQKPGQAPRLLIYWASTRHTGIPARFSGSGSGTEFTLTISSLQSEDFAVYFCQQYSSYPWTFGQGTKVEIKR ?
0.0118

And the next one, HA1L2 (antibody, human IgG2, kappa, V domains shown, Humanized IgG2 (V234A, G237A)/κ; also called No. 22) VH: EVQLVESGGGLVQPGGSLRLSCAASGFTFSSYGMSWVRQAPGKGLEYVSTINSNGGRTYYANSVKGRFTISRDNSKNTLYLQMGSLRAEDMAVYYCARDQGFAYWGQGTLVTVSS VL: DIQMTQSPSSLSASVGDRVTITCKASQDVGTAVAWYQQKPGKVPKLLIYWASTRHTGVPSRFSGSGSGTDFTLTISSLQPEDVATYFCQQYSSYPWTFGQGTKVEIKR ?
0.0122
